- Tested on: SK-MEL-5 melanoma
- test: NCI tumour cell line growth inhibition, 48 h
Could you please report measured TGI for the items listed next?

> print(dat)
                                   molecule  measured.quantity  reported.result
1  CC1=C(C(=O)Nc2ccccc2C)C(c2ccccc2)C(C(=O)Nc2ccccc2C)=C(C)N1                TGI            90 µM

Hi there! I need TGI for each item below, if you can.
1. CSc1c(C(=O)Nc2ccccc2)c(N)nn1-c1ccccc1
2. COc1cc2c3cc1Oc1c(O)c(OC)cc4c1[C@H](Cc1ccc(cc1)Oc1cc(ccc1O)C[C@H]3N(C)CC2)N(C)CC4
3. COc1ccc2cc(C(=O)/C=C/c3cc(OC)c(OC)c(OC)c3)ccc2c1

### Response
1. > 100 µM
2. 16.6 µM
3. 1.01 µM

Hi there! I need TGI for each item below, if you can.
1. O=[N+]([O-])C1C(c2ccccc2)C12c1ccccc1-c1ccccc12 (stereo unspecified)
2. C=CC[C@H]1[C@@H](O[Si](C)(C)C(C)(C)C)[C@H](n2ccc(=O)[nH]c2=O)O[C@@H]1CO[Si](C)(C)C(C)(C)C
3. CC(C)(CN)CN
4. O=P(O)(CCP(=O)(O)c1ccccc1)c1ccccc1
5. COc1ccc2nc(N/N=C(\C)c3ccccn3)cc(C)c2c1
6. CC(=O)NCCCCNCCCNC(C)=O
7. Cc1c(-c2c(C)c3ccccc3n2S(=O)(=O)c2ccccc2)n(S(=O)(=O)c2ccccc2)c2ccccc12

### Response
1: 9.48 µM; 2: 3.18 µM; 3: > 100 µM; 4: > 100 µM; 5: 1.12 µM; 6: > 100 µM; 7: > 94.1 µM

Hi there! I need TGI for each item below, if you can.
1. CC(=O)Oc1ccc(/C=C/C(=O)O[C@@H](C)[C@H](C)OC(=O)/C=C/c2ccc(OC(C)=O)c(OC(C)=O)c2)cc1OC(C)=O
2. N/N=C(\C(=O)Nc1c(Cl)cc([N+](=O)[O-])cc1Cl)C(c1cnc2ccc([N+](=O)[O-])cc2n1)[N+](=O)[O-] (stereo unspecified)
3. CC(=O)n1c(COS(C)(=O)=O)nc2ccccc21
4. CCOC(=O)c1ccc(NC(=O)N2CC(C)OC(C)C2)cc1 (stereo unspecified)
5. CCOC(=O)/C(O)=C1\C(=O)N(C)C(=O)C1c1ccc(OC)c(OC)c1 (stereo unspecified)
6. O=C(CCCn1cnc([N+](=O)[O-])n1)NCCn1ccnc1[N+](=O)[O-]

### Response
1: 29.2 µM; 2: > 100 µM; 3: > 100 µM; 4: > 100 µM; 5: > 100 µM; 6: > 100 µM

Hi there! I need TGI for each item below, if you can.
1. CC1=NOC2(C1)/C(=N/O)CCC/C2=N\O (stereo unspecified)
2. O=C(c1ccccc1)C(c1ccccc1)C1(O)C(=O)Nc2c(Cl)cc(Cl)cc21 (stereo unspecified)
3. COc1cc(C2CC(c3ccc(C)cc3)=NN2C=O)ccc1Oc1ccnc2cc(Cl)ccc12 (stereo unspecified)
4. N#CCC(=O)Nc1cccc(C(F)(F)F)c1

### Response
1: > 100 µM; 2: 30.7 µM; 3: > 50 µM; 4: > 100 µM
